Biological target: RNA-binding protein pos-1 (Caenorhabditis elegans, UniProt G5EF15)
Sequence (G5EF15 whole entry): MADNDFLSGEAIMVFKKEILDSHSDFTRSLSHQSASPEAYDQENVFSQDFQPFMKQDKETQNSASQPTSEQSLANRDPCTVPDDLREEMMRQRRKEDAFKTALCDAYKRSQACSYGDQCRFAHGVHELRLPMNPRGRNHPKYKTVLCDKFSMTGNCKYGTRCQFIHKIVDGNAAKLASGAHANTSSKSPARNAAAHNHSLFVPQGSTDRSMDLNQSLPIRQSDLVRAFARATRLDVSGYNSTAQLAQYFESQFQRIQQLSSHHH
Test: disruptors of C. elegans POS-1 RNA interaction – biochemical, fluorescence polarization, dose response (AID 1964);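 further: purified POS-1 fused to maltose binding protein made in E. coli; potency of compounds blocking POS-1 binding to fluorescent RNA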
Active and inactive are the calls of the source. No stated cut-off is given here; in the data, actives have a measured EC50 and inactives only a lower limit.
EC50 values, listed per item

For orientation, consider the following solved cases.
[[record]]
structure_as_smiles = "Cc1cc(O)c(C(C)C)cc1N=C1CSC(=O)N1"
assayed_target = "RNA-binding protein pos-1 (Caenorhabditis elegans, UniProt G5EF15)"
observed_result = "38.9 µM (active)"

[[record]]
structure_as_smiles = "Cc1c(NC(=O)CSc2ccc(Cl)cc2)cccc1-c1nc2cc(Cl)ccc2o1"
assayed_target = "RNA-binding protein pos-1 (Caenorhabditis elegans, UniProt G5EF15)"
observed_result = "> 300 µM (not active)"

[[record]]
structure_as_smiles = "Oc1[nH]c2ccccc2c1N=Nc1ccc(F)cc1"
assayed_target = "RNA-binding protein pos-1 (Caenorhabditis elegans, UniProt G5EF15)"
observed_result = "> 300 µM (not active)"

[[record]]
structure_as_smiles = "O=C(O)c1ccccc1NS(=O)(=O)c1ccc(NNC(=S)Nc2ccc(OC(F)F)cc2)c([N+](=O)[O-])c1"
assayed_target = "RNA-binding protein pos-1 (Caenorhabditis elegans, UniProt G5EF15)"
observed_result = "7.38 µM (active)"

[[record]]
structure_as_smiles = "O=C(NNC(=O)c1cc(Cl)ccc1O)c1cccc(S(=O)(=O)N2CCOCC2)c1"
assayed_target = "RNA-binding protein pos-1 (Caenorhabditis elegans, UniProt G5EF15)"
observed_result = "18.7 µM (inconclusive)"


Consider the record given below.
For reference, reported EC50 for Cc1ccc(O)c(-c2cc(C(=O)Nc3ccc(S(=O)(=O)Nc4nccc(C)n4)cc3)[nH]n2)c1 stands at 13.1 µM (inconclusive)
